# ASSAY_SYSTEM: T1, recombinant human IL-31 (hIL-31, BHK produced, A1277F, zcytor17lig CEE) (human, UniProt Q6EBC2 24-164)
# T1 construct: also called recombinant hIL-31
# T1 sequence: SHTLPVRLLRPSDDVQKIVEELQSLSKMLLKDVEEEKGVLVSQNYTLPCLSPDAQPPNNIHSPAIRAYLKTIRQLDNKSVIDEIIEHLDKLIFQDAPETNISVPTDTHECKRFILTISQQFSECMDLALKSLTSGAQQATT
# ASSAY_REMARKS: SPR (Biacore), against parent 292.12.3.1
VALUE_TYPE: Relative potency loss (KD)

Solved cases (2 shown):
BINDER	Relative potency loss (KD)
humanized 292.12.3.1 construct clone 25 (12VH1-gly + HC(F29L, R94F) + LC(F71Y)) (antibody, human IgG4, V domains shown) VH: QVQLVQSGAEVKKPGASVKVSCKASGYTLTRYWMQWVRQAPGQGLEWMGAIYPGDGDTRYSQKFQGRVTMTRDTSISTVYMELSSLRSEDTAVYYCAFPDGYYAAPYGMDYWGQGTLVTVSS VL: DIQMTQSPSSLSASVGDRVTITCRASGNIHNYLAWYQQKPGKVPKLLIYNAKTLADGVPSRFSGSGSGTDYTLTISSLQPEDVATYYCQHFWSTPWTFGQGTKVEIKR	~0.5 x to parent
humanized 292.12.3.1 construct clone 29 (12VH1-gly + HC(F29L, T73K, R94F) + LC(F71Y)) (antibody, human IgG4, V domains shown) VH: QVQLVQSGAEVKKPGASVKVSCKASGYTLTRYWMQWVRQAPGQGLEWMGAIYPGDGDTRYSQKFQGRVTMTRDKSISTVYMELSSLRSEDTAVYYCAFPDGYYAAPYGMDYWGQGTLVTVSS VL: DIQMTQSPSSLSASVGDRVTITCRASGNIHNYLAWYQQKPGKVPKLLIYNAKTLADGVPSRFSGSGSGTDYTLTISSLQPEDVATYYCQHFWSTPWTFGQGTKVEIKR	~0.5 x to parent

Kindly consider the entry below.
Fill in Relative potency loss (KD) for record humanized 292.12.3.1 construct clone 14 (12VH1-gly + HC(M69L, R71A, T73K, V78A, R94F) + LC(fback)) (antibody, human IgG4, V domains shown) VH: QVQLVQSGAEVKKPGASVKVSCKASGYTFTRYWMQWVRQAPGQGLEWMGAIYPGDGDTRYSQKFQGRVTLTADKSISTAYMELSSLRSEDTAVYYCAFPDGYYAAPYGMDYWGQGTLVTVSS VL: DIQMTQSPSSLSASVGDRVTITCRASGNIHNYLAWYQQKPGKVPKLLIYNAKTLADGVPSRFSGSRSETQYSLTISSLQPEDVATYYCQHFWSTPWTFGQGTKVEIKR ~5.5 x to parent
